System: Amaranthus retoflexus (AMARE)
protocol.description: Post-emergence Test
Format: in vivo
setup.conditions: 1000 g/ha, evaluated after 13 days
measure: percentage damage caused to the plant, AMARE
// no unit, no text: just the number

Take a look at these entries with their results.
CCn1c(-c2ccc(Cl)c(Cl)c2)c(C(=O)O)c(=O)c2cc(C(F)(F)F)ccc21; 0
CCn1c(-c2ccc(Cl)c(Cl)c2)c(C(=O)O)c(=O)c2c(Br)cccc21; 0

Now for the compound whose percentage damage caused to the plant, AMARE we want.
Indicate its recorded percentage damage caused to the plant, AMARE; the compound in question is CCn1c(-c2ccc(Cl)c(Cl)c2)c(C(=O)O)c(=O)c2ccc(OC)cc21 0
